# System: PPC-1, hormone-refractory human prostate cancer cells
# PROCEDURE_TEXT: ET-1-induced cell growth ([3H]-thymidine incorporation) of PPC-1
# Format: cell-based
# CONDITION_CONTEXT: ET-1 10^−8 M; [3H]-thymidine incorporation; read-out: IC50 of ET-1-induced promotion of PPC-1 cell growth
pIC50: −log10 of the molar value.

| CHEMICAL_STRING | pIC50 |
| --- | --- |
| COc1ccccc1Oc1c(NS(=O)(=O)C=Cc2ccccc2)nc(-c2ncccn2)nc1OC.[K] | 7.55 |
